pIC50 values for the molecules below.
test: Heparin-binding epidermal growth factor (HB-EGF) shedding inhibition
// scale note: pIC50 = -log10(conc_M); give the bare number

Past entries and their recorded results:
>>> df
                                chem_smiles  reported_result
0  C=Cc1ccc(S(=O)(=O)N2Cc3nccnc3C[C@@H]2C(=O)NO)cc1             5.96
1  O=C(NO)[C@H]1Cc2nccnc2CN1S(=O)(=O)c1ccc(Oc2ccncc2)cc1             6.47
2  O=C(NO)[C@H]1Cc2cc(O)c(O)cc2CN1S(=O)(=O)c1ccc(-c2ccccc2)cc1             5.89
3  CCOC(=O)CCCOc1ccc(S(=O)(=O)N2Cc3nccnc3C[C@@H]2C(=O)NO)cc1             5.96

Kindly consider the entry below.
[in] Which pIC50 is reported for this molecule? `O=C(NO)[C@H]1Cc2nccnc2CN1S(=O)(=O)c1ccc(Oc2cnccn2)cc1`
[out] 6.96

---

experiment: Heparin-binding epidermal growth factor (HB-EGF) shedding inhibition
REPORTED_ENDPOINT: IC50 (nM)
Use nM as the unit, but write only the number.

Past entries and their recorded results:
>>> df
                                chem_smiles  reported_endpoint  unit_of_measurement  reported_result
0  COCCc1ccc(S(=O)(=O)N2Cc3nccnc3C[C@@H]2C(=O)NO)s1               IC50                   nM             3000
1  O=C(NO)[C@H]1Cc2nccnc2CN1S(=O)(=O)c1cccs1               IC50                   nM              960

[in] Which IC50 is reported for this compound? `CS(=O)(=O)CCCOc1ccc(S(=O)(=O)N2Cc3nccnc3C[C@@H]2C(=O)NO)cc1`
[out] 1800

[in] Which IC50 is reported for this compound? `COc1ccc(S(=O)(=O)N2Cc3cc(NC(=O)[C@H](N)Cc4ccccc4)ccc3C[C@@H]2C(=O)NO)cc1`
[out] 570

[in] Which IC50 is reported for this compound? `CCCCCCS(=O)(=O)N1Cc2nccnc2C[C@@H]1C(=O)NO`
[out] 4400

[in] Which IC50 is reported for this compound? `Cc1ccc(S(=O)(=O)N2Cc3ccccc3C[C@@H]2C(=O)NO)cc1`
[out] 830

[in] Which IC50 is reported for this compound? `COc1ccc(CCS(=O)(=O)N2Cc3nccnc3C[C@@H]2C(=O)NO)cc1`
[out] 6700

[in] Which IC50 is reported for this compound? `CCCOc1ccc(S(=O)(=O)N2Cc3nccnc3C[C@@H]2C(=O)NO)cc1`
[out] 1000

[in] Which IC50 is reported for this compound? `C#Cc1ccc(S(=O)(=O)N2Cc3nccnc3C[C@@H]2C(=O)NO)cc1`
[out] 130

[in] Which IC50 is reported for this compound? `Nc1ccc2c(c1)CN(S(=O)(=O)c1ccc(Oc3ccccc3)cc1)[C@@H](C(=O)NO)C2`
[out] 490
